Cited source for all entries: ChEMBL document CHEMBL1141879

Below: a set of entries, each annotated with reported pIC50.
system_name: Primary amine oxidase (Pisum sativum)
Sequence (Q43077 whole entry): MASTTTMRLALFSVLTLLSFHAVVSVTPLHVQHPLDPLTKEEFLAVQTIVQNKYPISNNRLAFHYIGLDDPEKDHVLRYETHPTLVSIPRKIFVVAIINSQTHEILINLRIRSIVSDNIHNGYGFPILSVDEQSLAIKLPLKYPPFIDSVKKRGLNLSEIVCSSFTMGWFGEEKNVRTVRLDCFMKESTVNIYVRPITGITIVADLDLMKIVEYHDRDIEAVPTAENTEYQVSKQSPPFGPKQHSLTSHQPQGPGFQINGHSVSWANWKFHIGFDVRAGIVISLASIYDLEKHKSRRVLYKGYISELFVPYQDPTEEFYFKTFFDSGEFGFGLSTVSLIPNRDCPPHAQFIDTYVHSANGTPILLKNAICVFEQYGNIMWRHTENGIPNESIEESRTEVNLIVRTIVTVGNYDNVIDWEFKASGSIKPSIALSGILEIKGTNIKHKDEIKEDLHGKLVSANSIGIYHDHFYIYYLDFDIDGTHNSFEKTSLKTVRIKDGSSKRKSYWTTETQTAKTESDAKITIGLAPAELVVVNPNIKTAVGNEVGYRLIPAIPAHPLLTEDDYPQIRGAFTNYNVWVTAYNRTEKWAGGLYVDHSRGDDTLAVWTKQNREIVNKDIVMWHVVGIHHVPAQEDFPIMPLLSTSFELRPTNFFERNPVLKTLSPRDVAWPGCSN
protocol_description: Inhibition of putrescine binding to Pea seedling amine oxidase
Parameters: species or system Lathyrus oleraceus
pIC50: −log10 of the molar value.
assay_metric: pIC50

| smiles_text | qualifier_symbol | recorded_number |
| --- | --- | --- |
| CNc1cncc(N(C)C)c1CN | = | 4.77 |
| CCOc1cncc(OCC)c1CN.Cl.Cl | = | 3.48 |
| CCNc1ccccc1CN | < | 4.00 |
| CCNc1cncc(N(C)CC)c1CN | = | 4.26 |
| NCc1ccncc1NC1CCCCCC1 | = | 3.00 |
| CNc1ccccc1CN | < | 4.00 |
| CCNc1cnccc1CN | = | 5.03 |
